Experiment: in vivo
Design: species or system beagle dogs
Conditions: both sexes, beagle, dog, iv, 1 mg
measured_quantity: AUC(0-t) (ng·h/mL)
The figure you give is taken to be in ng·h/mL; do not add the unit.

input: Record request: AUC(0-t) value, item CCCCNc1cc(C(=O)O)cc(S(N)(=O)=O)c1Oc1ccccc1 [Bumetanide]
output: 185

----------
Test: in vivo
Parameters: species or system beagle dogs
Conditions: beagle, dog, iv, 1 mg, AUC (ng*h/mL)
Protocol: The purpose of this study was to assess the pharmacokinetic profiles of various formulations of bumetanide, including arginine bumetanide salts (FS-5 and FS-6) and potassium bumetanide salts (FS-3 and FS-4) for subcutaneous administration, and an bumetanide intranasal formulation (F82), which are described in Table 60, when each formulation is administered as a single subcutaneous, or intranasal in different vehicles when compared to single IV administration dose in male and female beagle dogs. […]
measured_quantity: AUC (ng·h/mL)
The figure you give is taken to be in ng·h/mL; do not add the unit.

input: Record request: AUC value, item CCCCNc1cc(C(=O)O)cc(S(N)(=O)=O)c1Oc1ccccc1 [Bumetanide]
output: 140

----------
Assay: in vivo
Parameters: species or system beagle dogs
Conditions: both sexes, beagle, dog, iv, 1 mg, AUC (ng*h/mL)
measured_quantity: AUC

input: Record request: AUC value, item CCCCNc1cc(C(=O)O)cc(S(N)(=O)=O)c1Oc1ccccc1 [Bumetanide]
output: 185 ng·h/mL

----------
Test: in vivo
Design: species or system beagle dogs
Conditions: both sexes, beagle, dog, iv, 1 mg
measured_quantity: AUC (ng·h/mL)
The figure you give is taken to be in ng·h/mL; do not add the unit.

input: Record request: AUC value, item CCCCNc1cc(C(=O)O)cc(S(N)(=O)=O)c1Oc1ccccc1 [Bumetanide]
output: 185
